Reported Ratio IC50 values for a set of compounds
Species on record: Homo sapiens
Protocol: Selectivity index, ratio of IC50 for human CYP1A2 to IC50 for human CYP1B1
Lab note: record just the number, no unit beside it.

Summary for this compound, "COc1ccc(OC)c2c1c(OC)cc1c(=O)c(O)c(-c3ccc(Cl)cc3)oc12" : Ratio IC50 is 17

###

Tested system: Cytochrome P450 1A2 (Homo sapiens, UniProt P05177)
Sequence (P05177 whole entry): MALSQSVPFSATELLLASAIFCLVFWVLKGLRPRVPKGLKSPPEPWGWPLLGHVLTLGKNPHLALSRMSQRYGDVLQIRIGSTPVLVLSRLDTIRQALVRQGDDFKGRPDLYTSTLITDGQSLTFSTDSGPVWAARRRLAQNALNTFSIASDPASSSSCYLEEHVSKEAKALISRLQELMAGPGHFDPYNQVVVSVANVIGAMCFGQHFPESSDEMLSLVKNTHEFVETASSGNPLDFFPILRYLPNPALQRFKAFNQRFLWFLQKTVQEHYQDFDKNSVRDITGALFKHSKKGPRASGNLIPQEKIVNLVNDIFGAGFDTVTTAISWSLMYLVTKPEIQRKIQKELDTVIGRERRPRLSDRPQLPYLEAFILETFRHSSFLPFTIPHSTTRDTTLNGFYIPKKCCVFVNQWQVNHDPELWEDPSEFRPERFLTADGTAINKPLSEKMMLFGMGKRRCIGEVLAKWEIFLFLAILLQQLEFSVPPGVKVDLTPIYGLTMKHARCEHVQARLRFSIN
Protocol: Inhibition of human CYP1A2 assessed as reduction in 7-ethoxyresorufin O-deethylation activity by fluorescence based EROD assay
Assay type: ADME
Property: pIC50
Convention used: pIC50 is expressed as -log10 of the molar concentration.

Example cases with answers are listed next.
chemical_string=COc1ccc(OC)c2c1c(OC)cc1c(=O)cc(-c3ccccc3O)oc12 number=7.30
chemical_string=COc1ccccc1-c1cc(=O)c2cc(OC)c3c(OC)ccc(OC)c3c2o1 number=7.87
chemical_string=COc1ccc(OC)c2c1c(OC)cc1c(=O)cc(-c3ccccc3)oc12 number=7.79
chemical_string=COc1ccc(OC)c2c1c(OC)cc1c(=O)c(OCCCCCCCCOC(=O)CN)c(-c3cccc(F)c3)oc12 number=6.89
chemical_string=COc1cc(-c2cc(=O)c3cc(OC)c4c(OC)ccc(OC)c4c3o2)cc(OC)c1OC number=7.63

Summary for this molecule, "COc1ccc(OC)c2c1c(OC)cc1c(=O)c(O)c(-c3cccc(Cl)c3)oc12" : pIC50 is 7.37

Summary for this molecule, "COc1ccc(OC)c2c1c(OC)cc1c(=O)cc(-c3cccc(F)c3)oc12" : pIC50 is 7.44

Summary for this molecule, "COc1ccc(OC)c2c1c(OC)cc1c(=O)cc(-c3ccc(O)cc3)oc12" : pIC50 is 7.23

Summary for this molecule, "COc1ccc(OC)c2c1c(OC)cc1c(=O)c(O)c(-c3cccc(F)c3)oc12" : pIC50 is 7.58

Summary for this molecule, "COc1ccc(OC)c2c1c(OC)cc1c(=O)c(OCCCCOC(=O)CN)c(-c3cccc(F)c3)oc12" : pIC50 is 6.92
